- test method notes: Cytotoxicity against human Saos2 cells after 3 to 4 days by resazurin proliferation assay
- Assay type: cell-based, SAOS-2
endpoint label: CC50 (µM)
Kindly provide the numeric value in µM only, without the unit symbol.

Ask: Please report the recorded CC50 for COc1ccc2c(O[C@@H]3C[C@H]4C(=O)N[C@]5(C(=O)NS(=O)(=O)C6CC6)C[C@H]5/C=C\CCCCN(C)C(=O)[C@@H]4C3)cc(-c3nc(C(C)C)cs3)nc2c1C [SIMEPREVIR] .
Result: 16

====

- test method notes: Ratio of AUC (0 to 31 hrs) in Sprague-Dawley rat heart to AUC (0 to 31 hrs) in Sprague-Dawley rat plasma at 40 mg/kg, po administered as single dose
- Type: ADME, organism-based
- Design: dose 40 mg/kg, route oral
endpoint label: Kp
Lab note: write the figure by itself, no unit.

Ask: Please report the recorded Kp for COc1ccc2c(O[C@@H]3C[C@H]4C(=O)N[C@]5(C(=O)NS(=O)(=O)C6CC6)C[C@H]5/C=C\CCCCN(C)C(=O)[C@@H]4C3)cc(-c3nc(C(C)C)cs3)nc2c1C [SIMEPREVIR] .
Result: 0.5
